Parameter z-score: see the listing below.
ASSAY PROTOCOL: basal RPMI8226 viability, no added stimulus, profiling panel, cell-based, calcein-AM fluorescence, 48 h, PK04 Diversity Set (AID 1166);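 also: cells grown under basal conditions without added stimulus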
CONDITION: RPMI8226 myeloma viability, higher = more signal

Before answering, review these 3 worked examples.
COc1ccc([Si](C)(C)[C@@H]2[C@@H](CCO)O[C@]3(C(=O)N(Cc4ccc(N5CCCCC5=O)cc4)c4ccccc43)[C@H]2C)cc1 = -3.05
[N-]=[N+]=NCc1ccccc1C[C@@]1(C(=O)NCc2ccccc2)N=C(c2ccc(OCCCO)cc2)O[C@@H]1c1ccccc1N=[N+]=[N-] = -3.5
COCCOC(=O)N1C(=O)[C@@]2(c3ccccc31)[C@H](C(=O)N1CCN(c3ncccn3)CC1)[C@H]1C(=O)O[C@H](c3ccccc3)[C@H](c3ccccc3)N1[C@@H]2c1ccc(O)cc1 = -0.441

Record O=C1O[C@H](c2ccccc2)[C@H](c2ccccc2)N2[C@H]1[C@@H](C(=O)NC[C@H](O)c1ccccc1)[C@]1(C(=O)Nc3ccc(C#CCCO)cc31)[C@H]2c1ccc(OCCO)cc1 . Reported z-score: 0.868

Looking up C=CCC(OC(C)=O)[C@@H]1[C@@H](N(Cc2cccc3ccccc23)C(=O)Cc2ccc(F)cc2)c2cc(OCCCO)ccc2N1C(=O)c1ccc2ccccc2n1 (stereo partly specified) , I found its z-score recorded as -0.381

// sample [N-]=[N+]=NCc1ccccc1[C@H]1OC(c2ccc(OCCCO)cc2)=N[C@@]1(CCS(=O)(=O)c1ccccc1)C(=O)NCC(O)CO (stereo partly specified) , its z-score was 0.429

====

Test system: XIP peptide (Xip251-270) binding
ASSAY PROTOCOL: small-molecule binders of XIP peptide, primary screen, biochemical, small-molecule microarray, fluorescence 635/667 nm, 0.1 µg/mL protein (AID 1182)
CONDITION: fluorescent protein binding, 635 nm, higher = more signal, called active from +8 up or from −8 down
The source made the active and inactive calls.
MEASURE: composite z-score

COC(=O)[C@@]1(Cc2ccc(OC)cc2)[C@H]2c3cc(C(=O)N(C)C)n(C[C@H](O)CO)c3C[C@H]2CN1C(=O)c1ccccc1 = 0.309 (inactive)

Lab note: measured composite z-score of CCCC[C@@H]1C[C@H]1[C@@H](NC(=O)c1cccs1)c1ccc(C(F)(F)F)cc1 was -0.011 (inactive)

get_value(item= COCCOC(=O)N1C(=O)[C@@]2(c3cc(C#CC4=CCCCC4)ccc31)[C@H](c1ccccc1OCCO)N1[C@H](c3ccccc3)[C@H](c3ccccc3)OC(=O)[C@H]1[C@@H]2C(=O)Nc1nc2ccccc2s1 , readout=composite z-score) returns 0.469 (inactive)

Item: COC(=O)C(CC#Cc1ccc2c(c1)[C@]1(C(=O)N2)[C@H](C(=O)N2CCN(c3ncccn3)CC2)[C@H]2C(=O)O[C@H](c3ccccc3)[C@H](c3ccccc3)N2[C@@H]1c1ccc(OCCO)cc1)C(=O)OC | composite z-score: 1.22 (inactive)

Measured composite z-score of CC1=C[C@@]2(CO)C(=O)[C@]3(CO3)[C@@H]1[C@H]1[C@]2(C)C=C(CO)C(=O)[C@]12CO2 : 0.188 (inactive)

// composite z-score value for Cc1ccc(S[C@]2(C(=O)NCC(F)(F)F)CC(=O)N(C3CCCCC3)[C@@H]2c2ccc(CO)cc2I)cc1 : -0.0988 (inactive)
